Recorded hERG current change (%, negative = inhibition) at 10uM for the following molecules
# assayed system: human ether-à-go-go-related gene (hERG) potassium channel (human, UniProt Q12809);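 also: peak tail current of the secondary pulse compared with the same well before compound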
# Sequence (Q12809 whole entry, looked up): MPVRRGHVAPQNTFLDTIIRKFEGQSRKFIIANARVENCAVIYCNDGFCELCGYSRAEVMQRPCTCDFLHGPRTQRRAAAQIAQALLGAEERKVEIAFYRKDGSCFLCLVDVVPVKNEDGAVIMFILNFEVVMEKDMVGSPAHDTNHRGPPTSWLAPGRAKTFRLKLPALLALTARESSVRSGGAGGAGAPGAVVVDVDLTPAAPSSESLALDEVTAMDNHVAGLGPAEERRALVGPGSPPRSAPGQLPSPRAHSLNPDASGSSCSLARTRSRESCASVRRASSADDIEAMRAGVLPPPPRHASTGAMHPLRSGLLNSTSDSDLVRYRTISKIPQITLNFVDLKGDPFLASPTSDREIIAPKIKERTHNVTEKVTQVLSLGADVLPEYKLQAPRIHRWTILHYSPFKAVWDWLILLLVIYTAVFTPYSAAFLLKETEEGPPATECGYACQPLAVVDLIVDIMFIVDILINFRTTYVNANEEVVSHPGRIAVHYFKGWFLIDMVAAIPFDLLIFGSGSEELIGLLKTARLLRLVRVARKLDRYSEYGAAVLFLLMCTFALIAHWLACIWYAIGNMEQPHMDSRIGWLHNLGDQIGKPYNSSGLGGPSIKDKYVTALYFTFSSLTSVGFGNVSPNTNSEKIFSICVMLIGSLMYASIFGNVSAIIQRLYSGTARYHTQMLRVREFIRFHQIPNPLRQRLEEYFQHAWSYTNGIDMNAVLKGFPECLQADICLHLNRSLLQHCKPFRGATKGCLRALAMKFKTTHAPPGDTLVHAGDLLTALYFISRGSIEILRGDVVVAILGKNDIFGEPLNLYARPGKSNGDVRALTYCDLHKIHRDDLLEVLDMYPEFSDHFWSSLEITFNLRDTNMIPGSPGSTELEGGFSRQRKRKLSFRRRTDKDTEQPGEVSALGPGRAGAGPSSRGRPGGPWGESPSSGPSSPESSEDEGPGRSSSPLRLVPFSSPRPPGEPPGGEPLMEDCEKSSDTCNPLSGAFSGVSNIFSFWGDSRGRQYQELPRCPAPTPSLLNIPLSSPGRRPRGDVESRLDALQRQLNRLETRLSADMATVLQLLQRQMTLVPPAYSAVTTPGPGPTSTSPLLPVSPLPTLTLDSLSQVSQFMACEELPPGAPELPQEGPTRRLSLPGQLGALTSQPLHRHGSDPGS
# experimental protocol: primary screen, population patch clamp on CHO cells stably expressing hERG; higher = less effect of the substance
Out of some 310,000 compounds screened, about 14,000 (4.5%) showed an effect of 50% or more. Effects have a minus sign here. The full list was thinned out, with strong results kept by preference.
Respond with the bare value in %.

These recorded examples may help you get a feel for the data.
| molecule | result number |
| --- | --- |
| CN(C(=O)CN1C(=O)C2C3CC(C(Br)C3Br)C2C1=O)C1CCCCC1 (centres unmarked) | -8.93 |
| Cc1ccccc1-c1cc(C(=O)NCC2CC2)n(CC2CC(c3cccnc3)=NO2)n1 (centres unmarked) | -20 |
| N#CCCOC1(C#CCN2CCCC2)CCCCC1 | 19.6 |

Query: Recall and state the measured hERG current change (%, negative = inhibition) at 10uM for Cc1noc(C)c1CSCC(=O)Nc1nc2ccc(Oc3ccccc3)cc2s1 .
Result: -13.6

Query: State its hERG current change (%, negative = inhibition) at 10uM: CC[n+]1c(/C=C/N(C)c2ccccc2)oc2ccccc21.O=S(=O)([O-])CCO
Result: 0.826

Query: # return recorded hERG current change (%, negative = inhibition) at 10uM for entry CC[n+]1c(/C=C2/C=C(C)CC(C)C2)sc2ccccc21.[I-] (centres unmarked)
Result: -3.25
